Listed here are molecules together with their documented IC50.
Test system: LPS-induced NO production in RAW 264.7 cells
Assay Method Text: LPS-induced NO production, Griess reaction assay
Format: cell-based, mouse
Run Conditions: Mus musculus, RAW264.7; RAW 264.7 cells, LPS 1 μg/mL, 24 h, Griess reagent; read-out: IC50, inhibition of LPS-induced NO production

Worked cases, IC50 given:
CC1=C[C@@H](O)[C@H](C(C)C)C[C@H]1O [Compound 2, (3S,4S,6R)-3,6-dihydroxy-1-menthene]	> 100 µM
C/C(C=O)=C\CC/C(C)=C/CO	> 100 µM
CC(=CCO)CCCC(C)CO (centres unmarked)	> 100 µM
C=C(C)[C@H]1CC[C@@](C)(O)C[C@@H]1O [Compound 3, (1R,3S,4R)-3-hydroxy isopulegol]	> 100 µM

Now, please, on to the next molecule.
Ask | Quote LPS-induced NO production in RAW 264.7 cells IC50 for entry CC(C)[C@H]1C=C[C@@](C)(O)[C@@H](O)C1 [Compound 4, (1R,4S,6S)-1,6-dihydroxy-2-menthene] .
Reply | 82.5 µM
